readout label: pIC50
Note on units: pIC50 is unitless, being -log10 of a concentration expressed in mol/L.

Tested on DPP-IV obtained from swine kidney (Sus scrofa), the item Cn1c(=O)n(CCc2ccccc2)c(=O)c2c1nc(N1CCCNCC1)n2Cc1ccccc1 [Control compound 1, reference compound] showed pIC50 equal to 7.62

---

I'd be grateful if you could share measured response vs control in vivo at 3 mg/kg for these entries.
tested on: male C57BL/6N mouse; experiment: Effect on glucose tolerance of normal mouse (oral glucose loading); type: in vivo; details: 2 h, 3 mg/kg oral, 30 min before glucose 2 g/kg, AUC0-120, 0.5% MC = 100%, NVP DPP728 10 mg/kg = 0%, lower = better, read-out: Improvement degree of glucose tolerance
Where a name gives a salt, the structure may show the parent alone.
Reply numerically in %, unit not repeated.

# compound CC#CCn1c(N2CCNCC2)nc2c1c(=O)n(C)c(=O)n2C(C)C(=O)OCC (stereo not shown) [Example 257, trifluoroacetate] ; its response vs control in vivo at 3 mg/kg = 10.5

Quick note, response vs control in vivo at 3 mg/kg for CC#CCn1c(N2CCNCC2)nc2c1c(=O)n(C)c(=O)n2CC(=O)OC [Example 219, trifluoroacetate] landed at -1.4

CC#CCn1c(N2CCNCC2)nc2c1c(=O)n(CCOCC)c(=O)n2C [Example 18, trifluoroacetate] yielded response vs control in vivo at 3 mg/kg of 9.5

Quick note, response vs control in vivo at 3 mg/kg for CC#CCn1c(N2CCNCC2)nc2c1c(=O)n(CC(=O)OC)c(=O)n2C [Example 15, trifluoroacetate] landed at -17.2
